assay: in vivo; details: male, dog, po
property.name: MTD at 4 days (µg/kg)
Express your answer in µg/kg, writing the number without its unit.

I have this compound here, CCCN[C@H]1CCc2nc(N)sc2C1 [PPX] , and I need its recorded MTD at 4 days. 7.5

* * *

target: human cloned dopamine receptors (D3) (Homo sapiens, UniProt P35462)
Sequence (P35462 whole entry): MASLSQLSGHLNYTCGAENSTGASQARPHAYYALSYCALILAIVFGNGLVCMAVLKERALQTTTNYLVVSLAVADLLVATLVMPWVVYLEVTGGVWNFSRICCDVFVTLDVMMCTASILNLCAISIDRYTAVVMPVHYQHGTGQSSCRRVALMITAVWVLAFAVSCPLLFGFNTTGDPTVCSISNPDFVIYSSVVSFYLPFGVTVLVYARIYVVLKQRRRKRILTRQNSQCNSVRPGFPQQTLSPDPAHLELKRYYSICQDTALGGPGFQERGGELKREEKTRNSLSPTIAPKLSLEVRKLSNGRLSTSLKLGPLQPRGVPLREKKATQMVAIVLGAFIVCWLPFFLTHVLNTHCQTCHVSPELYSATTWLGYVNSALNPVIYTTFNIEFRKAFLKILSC
property.name: pIC50
Formally, pIC50 is defined as -log10 of the concentration c, with c in mol/L.

I have this molecule here, CCCN[C@@H]1CCc2nc(N)sc2C1 , and I need its recorded pIC50. 6.21

Please find the next molecule below.
I have this molecule here, CCCN[C@H]1CCc2nc(N)sc2C1 , and I need its recorded pIC50. 9.03

* * *

experiment: clinical; conditions: human, in vivo, oral, 100 mg, Tmax, CL002, 100 mg Q12H (Day 1), Fasted; median
property.name: Tmax (h)
Express your answer in h, writing the number without its unit.

I have this molecule here, CCCN[C@@H]1CCc2nc(N)sc2C1 , and I need its recorded Tmax. 1.92

* * *

test: clinical; settings: human, blood, oral, 150 mg
property.name: Cmax

I have this molecule here, CCCN[C@@H]1CCc2nc(N)sc2C1 , and I need its recorded Cmax. 360 ng/mL

* * *

assay: in vivo; details: both, minipig
property.name: NOAEL at 14 days

I have this molecule here, CCCN[C@@H]1CCc2nc(N)sc2C1 , and I need its recorded NOAEL at 14 days. ≥ 75 mg/kg

* * *

experiment: clinical; details: human, blood, oral, 50 mg, Cmax, CL002, 50 mg Q12H (Day 7), Fasted; mean ± SD
property.name: Cmax
# do not omit the unit; it follows the number

I have this molecule here, CCCN[C@@H]1CCc2nc(N)sc2C1 , and I need its recorded Cmax. 191 ng/mL

* * *

assay: clinical; settings: human, blood, oral, 300 mg
property.name: Tmax (h)
Express your answer in h, writing the number without its unit.

I have this molecule here, CCCN[C@@H]1CCc2nc(N)sc2C1 , and I need its recorded Tmax. 1.96

* * *

assay: clinical; conditions: human, blood, oral, 50 mg, Tmax, CL002, 50 mg Q12H (Day 7), Fasted; median
property.name: Tmax (h)
Express your answer in h, writing the number without its unit.

I have this compound here, CCCN[C@@H]1CCc2nc(N)sc2C1 [RPPX] , and I need its recorded Tmax. 1.75

* * *

experiment: clinical; details: human, in vivo, oral, 100 mg, Cmax, CL002, 100 mg Q12H (Day 1), Fasted; mean ± SD
property.name: Cmax

I have this compound here, CCCN[C@@H]1CCc2nc(N)sc2C1 [RPPX] , and I need its recorded Cmax. 248 ng/mL

* * *

experiment: clinical; conditions: human, in vivo, oral, 100 mg, Tmax, CL002, 100 mg Q12H (Day 7), Fasted; median
property.name: Tmax (h)
Express your answer in h, writing the number without its unit.

I have this compound here, CCCN[C@@H]1CCc2nc(N)sc2C1 [RPPX] , and I need its recorded Tmax. 2
